subjectOfTest: CIB1 and αIIb interaction (CIB1-GST : F-αIIb peptide) (Homo sapiens, UniProt Q99828)
Construct: made in house; host or cells: BL-21 plus RIL cells (E. coli)
Sequence (Q99828 1-191): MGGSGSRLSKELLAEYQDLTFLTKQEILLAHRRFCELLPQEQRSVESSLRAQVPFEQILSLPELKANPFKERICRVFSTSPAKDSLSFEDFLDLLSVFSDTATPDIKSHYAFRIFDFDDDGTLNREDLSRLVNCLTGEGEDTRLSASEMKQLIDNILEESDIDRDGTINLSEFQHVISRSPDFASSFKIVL
assayText: FP assay, 1536-well qHTS format (primary and confirmatory screen)
Format: binding
reportedConditions: qHTS primary screen hits, Table S2; read-out: IC50
// returns no unless IC50 is strictly below 50 µM, in which case yes

Examples with answers:
compound	assignedCategory
O=C(Nc1ccccc1)c1ccccc1NC(=O)C1CCCCC1 [NCGC00189487-01]	no
NC(=O)c1ccnc2c(O)cccc12.O=C(O)C(F)(F)F [NCGC00183783-01]	yes
O=[N+]([O-])c1ccc2c(c1)S(=O)(=O)C=C2 [NCGC00167848-02]	yes
Fc1ccc(C(c2ccc(F)cc2)N2CCN(C/C=C/c3ccccc3)CC2)cc1 [NCGC00018102-06]	yes

Query :: Check if IC50 falls below 50 µM for C#CCOC(=O)NCCCC[C@H](N)C(=O)O [NCGC00351539-01] .
Result :: no

Query :: Check if IC50 falls below 50 µM for Nc1c(S(=O)(=O)[O-])cc(Nc2ccc(Nc3nc(Cl)nc(Nc4ccc(S(=O)(=O)O)cc4)n3)c(S(=O)(=O)O)c2)c2c1C(=O)c1ccccc1C2=O.[Na+] [NCGC00162329-02] .
Result :: yes

Query :: Check if IC50 falls below 50 µM for Nc1ccncc1N [NCGC00167560-02] .
Result :: no

Query :: Check if IC50 falls below 50 µM for Oc1ccccc1C1Nc2cccc3cccc(c23)N1 [NCGC00026112-04] .
Result :: no

Query :: Check if IC50 falls below 50 µM for O.O=C(O)[C@@H]1[C@H]2C[C@H]3c4[nH]c5ccccc5c4CCN3C[C@@H]2CC[C@@H]1O [NCGC00178432-05] .
Result :: yes

Query :: Check if IC50 falls below 50 µM for Cc1ccc2nc3sc(C(=O)NCc4ccco4)cc3cc2c1.O=C(O)C(F)(F)F [NCGC00183968-01] .
Result :: yes

Query :: Check if IC50 falls below 50 µM for CO/N=C(\C(=O)N[C@@H]1C(=O)N2C(C(=O)O)=C(Cn3nnc(C)n3)CS[C@H]12)c1csc(N)n1 [NCGC00183016-01] .
Result :: no

Query :: Check if IC50 falls below 50 µM for COc1cccc2c1C(=O)c1c(O)c3c(c(O)c1C2=O)C[C@@](O)(C(C)=O)C[C@@H]3O[C@H]1C[C@H](N)[C@H](O)[C@H](C)O1 [NCGC00024246-15] .
Result :: yes

====

subjectOfTest: CIB1 and αIIb interaction (CIB1-GST : F-αIIb peptide) (Homo sapiens, UniProt Q99828)
Construct: made in house; host or cells: BL-21 plus RIL cells (E. coli)
assayText: FP assay, 1536-well qHTS format (primary and confirmatory screen)
Type: binding
reportedConditions: qHTS FP screen hits, Table S2; read-out: IC50
# Lookup of reported IC50 keyed by entry
Answer format: numeric, µM implied, no suffix.

Worked examples follow.
molecule	subjectOfTest	IC50 [µM]
CC(O)c1ccc(-c2ccc3ncnc(NCc4nccs4)c3c2)o1.O=C(O)C(F)(F)F (stereo not shown)	CIB1 and αIIb interaction (CIB1-GST : F-αIIb peptide) (Homo sapiens, UniProt Q99828)	39.8
CN1CCN(c2ccc(-c3cc(O)c4ncccc4c3)cc2)CC1.O=C(O)C(F)(F)F	CIB1 and αIIb interaction (CIB1-GST : F-αIIb peptide) (Homo sapiens, UniProt Q99828)	39.8
Cc1cc(S(=O)(=O)Nc2cnccc2C(=O)Nc2nc(-c3ccccc3)cs2)c(C)o1.O=C(O)C(F)(F)F	CIB1 and αIIb interaction (CIB1-GST : F-αIIb peptide) (Homo sapiens, UniProt Q99828)	38.1

Consider now this further molecule.
Query :: Look up IC50 of C=C1[C@@H](C)[C@H]2[C@H](Cc3ccccc3)NC(=O)[C@]23OC(=O)/C=C/C(=O)CCC[C@@H](C)C/C=C/[C@H]3[C@@H]1O and report it.
Result :: 20
